system_under_test: nicotine receptor, rat brain membranes
Format: binding
experimental_setup: read-out: IC50 for 3H-MCC
quantity_kind: IC50

Request: Give reported IC50 value for C[N+](C)(C)CCOC(=O)CCC(=O)OCC[N+](C)(C)C [TMAE succinate, succinylcholine]
Response: ~50 µM

----------
system_under_test: nicotine receptor, rat brain membranes
Type: binding
experimental_setup: read-out: [3H]-MCC IC50
quantity_kind: IC50 (nM)
The answer is to be given in nM; state only the numeric part.

Request: Give reported IC50 value for CCN1CCCC1c1cccnc1 (centres unmarked)
Response: 100

----------
Property: IC50; scope: individual compounds
system_under_test: nicotine receptor, rat brain membranes
Type: binding
experimental_setup: read-out: 3H-Nicotine Binding IC50

compound | system_under_test | quantity_kind | assay_result
C[N+](C)(C)CCOC(=O)CCC(=O)OCC[N+](C)(C)C [TMAE succinate, succinylcholine] | nicotine receptor, rat brain membranes | IC50 | 800 nM

Turning to the following compound.
Request: # return IC50 for CNC(=O)OC1CCN(Cc2ccccc2)CC1 [N-benzyl-4-piperdyl methylcarbamate] , test system: nicotine receptor, rat brain membranes
Response: > 100000 nM

----------
system_under_test: nicotine receptor, rat brain membranes
Format: binding
experimental_setup: read-out: IC50 for 3H-nicotine
quantity_kind: IC50

Request: Give reported IC50 value for C[N+](C)(C)CCOC(=O)CCC(=O)OCC[N+](C)(C)C [TMAE succinate, succinylcholine]
Response: ~50 µM

----------
Property: Mortality (dead/total); scope: individual compounds
System: nicotine mortality in rats
experimental_setup: rat, in vivo

Below are worked cases with known answers.
compound | Mortality (dead/total)
C[N+](C)(C)CCOC(=S)Nc1ccccc1 [TMAE phenylthiocarbamate] | 3/10
CN1[C@@H](CC(=O)c2ccccc2)CCC[C@H]1C[C@H](O)c1ccccc1 | 2/10
C[N+](C)(C)CCOC(=O)Nc1ccccc1 [TMAE phenylcarbamate] | 4/10

Turning to the following compound.
Request: # return Mortality (dead/total) for C[N+](C)(C)CCOC(=O)c1ccccc1 [TMAE benzoate, benzoylcholine] , test system: nicotine mortality in rats
Response: 3/10

----------
system_under_test: nicotine receptor, rat brain membranes
Type: binding
experimental_setup: read-out: 3H-MCC Binding IC50
quantity_kind: IC50 (µM)
The answer is to be given in µM; state only the numeric part.

molecule | assay_result
CCN1CCCC1c1cccnc1 (stereo not drawn) | 0.1

Turning to the following molecule.
Request: Give reported IC50 value for C[N+](C)(C)CCOC(=O)CCC(=O)OCC[N+](C)(C)C [TMAE succinate, succinylcholine]
Response: 0.7

These entries and their values trace back to patent US4966916A.
